Reference source for all entries: paper PMC12586182

biological target: CDC2/CycB1 (Homo sapiens, UniProt P06493); construct: purchased Carna Biosciences; test: Kinase panel profiling at 1 µmol/L (mobility shift assay, Carna); format: biochemical; conditions: 1 µmol/L of BTK inhibitor
Sequence (P06493 whole entry): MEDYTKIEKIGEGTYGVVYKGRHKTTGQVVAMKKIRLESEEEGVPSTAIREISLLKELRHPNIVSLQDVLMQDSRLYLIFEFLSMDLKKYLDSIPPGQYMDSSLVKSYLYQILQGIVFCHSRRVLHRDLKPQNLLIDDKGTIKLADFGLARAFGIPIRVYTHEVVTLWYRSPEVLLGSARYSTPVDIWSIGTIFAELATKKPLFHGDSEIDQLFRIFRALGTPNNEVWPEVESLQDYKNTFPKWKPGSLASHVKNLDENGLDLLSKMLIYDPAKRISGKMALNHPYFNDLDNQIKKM
Sequence (P14635 whole entry partner): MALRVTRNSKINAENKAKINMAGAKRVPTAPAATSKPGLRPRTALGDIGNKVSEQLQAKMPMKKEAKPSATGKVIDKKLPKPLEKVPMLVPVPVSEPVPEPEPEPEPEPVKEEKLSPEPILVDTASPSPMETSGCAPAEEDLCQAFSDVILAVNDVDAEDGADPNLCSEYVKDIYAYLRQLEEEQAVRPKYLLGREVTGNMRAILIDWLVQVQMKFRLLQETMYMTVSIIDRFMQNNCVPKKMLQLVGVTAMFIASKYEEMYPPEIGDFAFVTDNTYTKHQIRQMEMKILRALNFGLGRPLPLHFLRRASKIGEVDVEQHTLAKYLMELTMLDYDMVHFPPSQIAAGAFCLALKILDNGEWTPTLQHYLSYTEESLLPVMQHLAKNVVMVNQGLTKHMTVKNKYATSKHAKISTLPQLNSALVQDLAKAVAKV
# Percentage inhibition of kinase enzyme activity listing for each entry below
recorded metric: Percentage inhibition of kinase enzyme activity (%)

compound string: COc1ccc(F)cc1C(=O)NCc1ccc(-c2nn([C@@H](C)C(F)(F)F)c(N)c2C(N)=O)cc1
unit abbrev: %
observed value: -10.48
--
compound string: C=CC(=O)N1CCC[C@@H](n2nc(-c3ccc(Oc4ccccc4)cc3)c3c(N)ncnc32)C1
unit abbrev: %
observed value: -1.03
--
compound string: CC#CC(=O)N1CCC[C@H]1c1nc(-c2ccc(C(=O)Nc3ccccn3)cc2)c2c(N)nccn12
unit abbrev: %
observed value: -0.40
--
compound string: O=C(c1ccc(Oc2ccccc2)cc1Cl)c1c[nH]c2ncnc(N[C@@H]3CC[C@@H](CO)OC3)c12
unit abbrev: %
observed value: -7.65

---

molecular target: FMS (Homo sapiens); construct: purchased Carna Biosciences; test: Kinase panel profiling at 1 µmol/L (mobility shift assay, Carna); format: biochemical; conditions: 1 µmol/L of BTK inhibitor
Sequence (P07333 20-972): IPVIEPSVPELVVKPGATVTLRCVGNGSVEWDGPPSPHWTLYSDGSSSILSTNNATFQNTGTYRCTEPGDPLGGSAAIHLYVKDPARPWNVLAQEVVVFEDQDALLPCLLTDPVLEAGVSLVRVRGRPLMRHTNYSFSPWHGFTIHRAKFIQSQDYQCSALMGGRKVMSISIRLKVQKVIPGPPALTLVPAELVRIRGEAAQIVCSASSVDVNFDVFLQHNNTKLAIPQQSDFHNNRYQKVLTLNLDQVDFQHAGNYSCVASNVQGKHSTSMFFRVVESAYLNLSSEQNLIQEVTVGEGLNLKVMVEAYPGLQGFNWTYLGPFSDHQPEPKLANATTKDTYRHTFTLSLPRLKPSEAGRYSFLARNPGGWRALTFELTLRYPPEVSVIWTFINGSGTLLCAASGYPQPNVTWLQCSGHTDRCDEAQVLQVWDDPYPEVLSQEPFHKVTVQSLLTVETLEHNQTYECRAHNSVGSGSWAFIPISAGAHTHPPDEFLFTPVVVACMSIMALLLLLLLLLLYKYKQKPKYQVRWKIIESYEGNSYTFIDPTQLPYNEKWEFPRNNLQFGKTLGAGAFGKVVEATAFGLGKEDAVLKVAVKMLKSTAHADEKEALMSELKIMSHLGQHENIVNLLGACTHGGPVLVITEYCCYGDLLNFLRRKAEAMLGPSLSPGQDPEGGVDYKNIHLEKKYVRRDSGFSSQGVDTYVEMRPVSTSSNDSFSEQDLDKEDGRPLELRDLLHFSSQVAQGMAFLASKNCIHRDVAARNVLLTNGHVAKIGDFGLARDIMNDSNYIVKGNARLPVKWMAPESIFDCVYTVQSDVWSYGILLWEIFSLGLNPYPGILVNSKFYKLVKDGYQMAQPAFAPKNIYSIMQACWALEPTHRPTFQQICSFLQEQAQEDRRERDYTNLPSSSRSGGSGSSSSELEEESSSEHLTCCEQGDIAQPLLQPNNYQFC
Is Percentage inhibition of kinase enzyme activity at least 20%? Then yes. If not, no.

compound string: C=CC(=O)N1CCC([C@@H]2CCNc3c(C(N)=O)c(-c4ccc(Oc5ccccc5)cc4)nn32)CC1
class: yes
//
compound string: CC#CC(=O)N1CCC[C@H]1c1nc(-c2ccc(C(=O)Nc3ccccn3)cc2)c2c(N)nccn12
class: no
//
compound string: COc1ccc(F)cc1C(=O)NCc1ccc(-c2nn([C@@H](C)C(F)(F)F)c(N)c2C(N)=O)cc1
class: no
//
compound string: O=C(c1ccc(Oc2ccccc2)cc1Cl)c1c[nH]c2ncnc(N[C@@H]3CC[C@@H](CO)OC3)c12
class: yes
//
compound string: C=CC(=O)N1CCC[C@@H](n2nc(-c3ccc(Oc4ccccc4)cc3)c3c(N)ncnc32)C1
class: no

---

target: CGK2 (Homo sapiens); construct: purchased Carna Biosciences; assay: Kinase panel profiling at 1 µmol/L (mobility shift assay, Carna); type: biochemical; conditions: 1 µmol/L of BTK inhibitor
Sequence (Q13237 whole entry): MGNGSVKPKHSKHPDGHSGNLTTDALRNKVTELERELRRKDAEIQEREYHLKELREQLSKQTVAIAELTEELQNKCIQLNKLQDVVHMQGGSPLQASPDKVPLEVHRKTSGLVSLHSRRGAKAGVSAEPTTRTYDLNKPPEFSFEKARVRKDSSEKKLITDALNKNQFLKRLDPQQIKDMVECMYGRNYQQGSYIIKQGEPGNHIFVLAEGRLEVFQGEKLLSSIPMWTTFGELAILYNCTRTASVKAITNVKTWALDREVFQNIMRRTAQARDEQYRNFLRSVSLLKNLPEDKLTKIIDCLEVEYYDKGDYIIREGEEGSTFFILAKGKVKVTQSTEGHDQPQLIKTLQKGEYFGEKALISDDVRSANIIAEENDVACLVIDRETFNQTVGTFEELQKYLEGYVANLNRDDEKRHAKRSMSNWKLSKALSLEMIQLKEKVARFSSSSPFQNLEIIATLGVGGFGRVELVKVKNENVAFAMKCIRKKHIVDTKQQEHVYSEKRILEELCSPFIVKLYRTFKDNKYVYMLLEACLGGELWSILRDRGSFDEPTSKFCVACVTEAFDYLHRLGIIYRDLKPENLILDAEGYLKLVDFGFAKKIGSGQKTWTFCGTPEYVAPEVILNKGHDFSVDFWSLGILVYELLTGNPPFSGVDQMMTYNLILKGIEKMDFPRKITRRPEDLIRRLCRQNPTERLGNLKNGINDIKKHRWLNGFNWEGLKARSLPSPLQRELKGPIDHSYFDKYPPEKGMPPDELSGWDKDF
# Percentage inhibition of kinase enzyme activity listing for each entry below
recorded metric: Percentage inhibition of kinase enzyme activity (%)

compound string: O=C(c1ccc(Oc2ccccc2)cc1Cl)c1c[nH]c2ncnc(N[C@@H]3CC[C@@H](CO)OC3)c12
subject of test: CGK2 (Homo sapiens)
unit abbrev: %
observed value: -1.75

compound string: C=CC(=O)N1CCC[C@@H](n2nc(-c3ccc(Oc4ccccc4)cc3)c3c(N)ncnc32)C1
subject of test: CGK2 (Homo sapiens)
unit abbrev: %
observed value: -1.77

compound string: CC#CC(=O)N1CCC[C@H]1c1nc(-c2ccc(C(=O)Nc3ccccn3)cc2)c2c(N)nccn12
subject of test: CGK2 (Homo sapiens)
unit abbrev: %
observed value: 1.55

compound string: COc1ccc(F)cc1C(=O)NCc1ccc(-c2nn([C@@H](C)C(F)(F)F)c(N)c2C(N)=O)cc1
subject of test: CGK2 (Homo sapiens)
unit abbrev: %
observed value: -1.75

---

molecular target: AKT3 (Homo sapiens); construct: purchased Carna Biosciences; experiment: Kinase panel profiling at 1 µmol/L (mobility shift assay, Carna); type: biochemical; details: 1 µmol/L of BTK inhibitor
recorded metric: Percentage inhibition of kinase enzyme activity (%)

compound string: CC#CC(=O)N1CCC[C@H]1c1nc(-c2ccc(C(=O)Nc3ccccn3)cc2)c2c(N)nccn12
observed value: -4.92
--
compound string: O=C(c1ccc(Oc2ccccc2)cc1Cl)c1c[nH]c2ncnc(N[C@@H]3CC[C@@H](CO)OC3)c12
observed value: 9.45
--
compound string: C=CC(=O)N1CCC[C@@H](n2nc(-c3ccc(Oc4ccccc4)cc3)c3c(N)ncnc32)C1
observed value: -2.25
--
compound string: COc1ccc(F)cc1C(=O)NCc1ccc(-c2nn([C@@H](C)C(F)(F)F)c(N)c2C(N)=O)cc1
observed value: -2.20

---

target: LCK (Homo sapiens, UniProt P06239); construct: purchased Carna Biosciences; experiment: Kinase panel profiling at 1 µmol/L (mobility shift assay, Carna); format: biochemical; conditions: 1 µmol/L of BTK inhibitor
Sequence (P06239 whole entry): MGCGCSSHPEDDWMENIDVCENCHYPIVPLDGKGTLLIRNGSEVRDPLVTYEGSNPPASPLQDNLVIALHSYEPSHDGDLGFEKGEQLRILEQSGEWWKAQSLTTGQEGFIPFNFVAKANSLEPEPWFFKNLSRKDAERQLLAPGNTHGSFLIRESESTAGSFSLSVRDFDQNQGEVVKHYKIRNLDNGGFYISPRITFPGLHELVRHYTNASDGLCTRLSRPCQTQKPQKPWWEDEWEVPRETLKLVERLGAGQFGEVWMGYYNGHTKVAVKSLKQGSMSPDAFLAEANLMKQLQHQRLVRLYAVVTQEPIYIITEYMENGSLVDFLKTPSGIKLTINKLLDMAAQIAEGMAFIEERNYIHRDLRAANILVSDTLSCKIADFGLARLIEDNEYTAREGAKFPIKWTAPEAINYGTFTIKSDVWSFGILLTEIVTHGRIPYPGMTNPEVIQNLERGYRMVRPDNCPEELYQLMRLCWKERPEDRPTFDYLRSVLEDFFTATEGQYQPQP
Is Percentage inhibition of kinase enzyme activity at least 30%? Then yes. If not, no.

compound string: O=C(c1ccc(Oc2ccccc2)cc1Cl)c1c[nH]c2ncnc(N[C@@H]3CC[C@@H](CO)OC3)c12
class: yes
//
compound string: C=CC(=O)N1CCC([C@@H]2CCNc3c(C(N)=O)c(-c4ccc(Oc5ccccc5)cc4)nn32)CC1
class: no
//
compound string: C=CC(=O)N1CCC[C@@H](n2nc(-c3ccc(Oc4ccccc4)cc3)c3c(N)ncnc32)C1
class: yes
//
compound string: CC#CC(=O)N1CCC[C@H]1c1nc(-c2ccc(C(=O)Nc3ccccn3)cc2)c2c(N)nccn12
class: no

---

system: BL-70; assay: Cell viability assay (ATPlite); type: cell-based; settings: Homo sapiens; BL-70 cell line, 72 hours incubation
pIC50: −log10 of the molar value.

compound string: O=C(c1ccc(Oc2ccccc2)cc1Cl)c1c[nH]c2ncnc(N[C@@H]3CC[C@@H](CO)OC3)c12
pIC50: 6.30

---

target: ITK (Homo sapiens, UniProt Q08881); construct: purchased Carna Biosciences; experiment: Kinase panel profiling at 1 µmol/L (mobility shift assay, Carna); type: biochemical; details: 1 µmol/L of BTK inhibitor
Sequence (Q08881 whole entry): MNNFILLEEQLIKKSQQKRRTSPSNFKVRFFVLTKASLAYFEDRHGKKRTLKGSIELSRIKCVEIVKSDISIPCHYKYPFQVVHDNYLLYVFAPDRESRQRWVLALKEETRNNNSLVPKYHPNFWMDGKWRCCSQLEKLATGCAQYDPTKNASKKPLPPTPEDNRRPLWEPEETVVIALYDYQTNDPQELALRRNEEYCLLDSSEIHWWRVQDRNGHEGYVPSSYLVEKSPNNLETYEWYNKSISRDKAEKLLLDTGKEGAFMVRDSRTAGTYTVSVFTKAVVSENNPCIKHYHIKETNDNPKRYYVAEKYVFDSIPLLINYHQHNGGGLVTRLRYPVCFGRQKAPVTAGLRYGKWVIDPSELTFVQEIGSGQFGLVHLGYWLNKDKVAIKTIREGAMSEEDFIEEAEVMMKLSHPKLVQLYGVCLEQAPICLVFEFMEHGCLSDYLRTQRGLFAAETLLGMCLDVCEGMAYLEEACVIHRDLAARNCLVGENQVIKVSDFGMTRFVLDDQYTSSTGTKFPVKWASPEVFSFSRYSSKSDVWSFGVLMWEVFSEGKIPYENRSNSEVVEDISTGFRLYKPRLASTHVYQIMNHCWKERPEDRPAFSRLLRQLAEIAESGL
recorded metric: Percentage inhibition of kinase enzyme activity (%)

compound: O=C(c1ccc(Oc2ccccc2)cc1Cl)c1c[nH]c2ncnc(N[C@@H]3CC[C@@H](CO)OC3)c12 [nemtabrutinib]
observed value: 8.66

compound: COc1ccc(F)cc1C(=O)NCc1ccc(-c2nn([C@@H](C)C(F)(F)F)c(N)c2C(N)=O)cc1 [pirtobrutinib]
observed value: 0.65

compound: C=CC(=O)N1CCC[C@@H](n2nc(-c3ccc(Oc4ccccc4)cc3)c3c(N)ncnc32)C1 [ibrutinib]
observed value: 93.10

compound: C=CC(=O)N1CCC([C@@H]2CCNc3c(C(N)=O)c(-c4ccc(Oc5ccccc5)cc4)nn32)CC1 [zanubrutinib]
observed value: -2.98

compound: CC#CC(=O)N1CCC[C@H]1c1nc(-c2ccc(C(=O)Nc3ccccn3)cc2)c2c(N)nccn12 [acalabrutinib]
observed value: 0.87

---

target: PLK1 (Homo sapiens, UniProt P53350); construct: purchased Carna Biosciences; experiment: Kinase panel profiling at 1 µmol/L (mobility shift assay, Carna); assay type: biochemical; conditions: 1 µmol/L of BTK inhibitor
Sequence (P53350 whole entry): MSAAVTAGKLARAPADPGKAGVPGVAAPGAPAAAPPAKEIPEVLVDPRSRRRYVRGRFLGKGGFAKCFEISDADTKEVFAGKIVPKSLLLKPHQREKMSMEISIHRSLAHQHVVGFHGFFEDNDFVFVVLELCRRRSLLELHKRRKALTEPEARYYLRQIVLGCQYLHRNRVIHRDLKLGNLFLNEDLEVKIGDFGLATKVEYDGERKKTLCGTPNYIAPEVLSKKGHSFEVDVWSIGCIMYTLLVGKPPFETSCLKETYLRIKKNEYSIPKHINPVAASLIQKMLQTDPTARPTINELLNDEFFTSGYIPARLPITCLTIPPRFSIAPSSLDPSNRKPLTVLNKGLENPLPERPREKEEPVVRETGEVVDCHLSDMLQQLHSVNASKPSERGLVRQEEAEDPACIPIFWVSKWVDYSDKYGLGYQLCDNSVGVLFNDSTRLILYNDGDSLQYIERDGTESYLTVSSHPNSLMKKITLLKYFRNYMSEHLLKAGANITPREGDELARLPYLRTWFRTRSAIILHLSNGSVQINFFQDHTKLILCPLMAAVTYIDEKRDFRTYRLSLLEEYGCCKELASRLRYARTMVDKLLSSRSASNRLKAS
recorded metric: Percentage inhibition of kinase enzyme activity (%)

compound string: O=C(c1ccc(Oc2ccccc2)cc1Cl)c1c[nH]c2ncnc(N[C@@H]3CC[C@@H](CO)OC3)c12
unit abbrev: %
observed value: 1.28
//
compound string: C=CC(=O)N1CCC[C@@H](n2nc(-c3ccc(Oc4ccccc4)cc3)c3c(N)ncnc32)C1
unit abbrev: %
observed value: -2.28
//
compound string: COc1ccc(F)cc1C(=O)NCc1ccc(-c2nn([C@@H](C)C(F)(F)F)c(N)c2C(N)=O)cc1
unit abbrev: %
observed value: 1.53
//
compound string: CC#CC(=O)N1CCC[C@H]1c1nc(-c2ccc(C(=O)Nc3ccccn3)cc2)c2c(N)nccn12
unit abbrev: %
observed value: -2.57

---

target: DDR1 (Homo sapiens, UniProt Q08345); construct: purchased Carna Biosciences; experiment: Kinase panel profiling at 1 µmol/L (mobility shift assay, Carna); assay type: biochemical; settings: 1 µmol/L of BTK inhibitor
recorded metric: Percentage inhibition of kinase enzyme activity (%)

compound string: COc1ccc(F)cc1C(=O)NCc1ccc(-c2nn([C@@H](C)C(F)(F)F)c(N)c2C(N)=O)cc1
observed value: 2.52

compound string: O=C(c1ccc(Oc2ccccc2)cc1Cl)c1c[nH]c2ncnc(N[C@@H]3CC[C@@H](CO)OC3)c12
observed value: 93.81

compound string: C=CC(=O)N1CCC[C@@H](n2nc(-c3ccc(Oc4ccccc4)cc3)c3c(N)ncnc32)C1
observed value: 37.17

compound string: CC#CC(=O)N1CCC[C@H]1c1nc(-c2ccc(C(=O)Nc3ccccn3)cc2)c2c(N)nccn12
observed value: 7.80

---

# Percentage inhibition of kinase enzyme activity listing for each entry below
biological target: JNK2 (Homo sapiens, UniProt P45984); construct: purchased Carna Biosciences; assay: Kinase panel profiling at 1 µmol/L (mobility shift assay, Carna); type: biochemical; settings: 1 µmol/L of BTK inhibitor
Sequence (P45984 whole entry): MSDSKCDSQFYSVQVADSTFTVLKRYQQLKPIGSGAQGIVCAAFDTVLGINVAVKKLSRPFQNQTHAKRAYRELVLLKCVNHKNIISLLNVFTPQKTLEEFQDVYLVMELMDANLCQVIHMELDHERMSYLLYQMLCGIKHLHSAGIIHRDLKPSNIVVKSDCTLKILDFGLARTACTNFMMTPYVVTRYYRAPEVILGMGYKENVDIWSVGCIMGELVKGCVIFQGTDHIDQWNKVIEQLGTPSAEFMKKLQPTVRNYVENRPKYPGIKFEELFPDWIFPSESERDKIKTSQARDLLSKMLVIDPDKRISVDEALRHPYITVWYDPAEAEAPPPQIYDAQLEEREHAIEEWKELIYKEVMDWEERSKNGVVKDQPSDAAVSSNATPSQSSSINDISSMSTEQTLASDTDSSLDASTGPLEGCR
recorded metric: Percentage inhibition of kinase enzyme activity (%)

compound string: O=C(c1ccc(Oc2ccccc2)cc1Cl)c1c[nH]c2ncnc(N[C@@H]3CC[C@@H](CO)OC3)c12
unit abbrev: %
observed value: 4.23
--
compound string: C=CC(=O)N1CCC[C@@H](n2nc(-c3ccc(Oc4ccccc4)cc3)c3c(N)ncnc32)C1
unit abbrev: %
observed value: -2.83
--
compound string: CC#CC(=O)N1CCC[C@H]1c1nc(-c2ccc(C(=O)Nc3ccccn3)cc2)c2c(N)nccn12
unit abbrev: %
observed value: -1.85
--
compound string: COc1ccc(F)cc1C(=O)NCc1ccc(-c2nn([C@@H](C)C(F)(F)F)c(N)c2C(N)=O)cc1
unit abbrev: %
observed value: 7.41
